FYI, the data here is from patent US6608082B1.

Target: MCR-1 (Homo sapiens, UniProt Q01726)
Construct: expressed in transfected cells; host or cells: HEK 293
Sequence (Q01726 whole entry): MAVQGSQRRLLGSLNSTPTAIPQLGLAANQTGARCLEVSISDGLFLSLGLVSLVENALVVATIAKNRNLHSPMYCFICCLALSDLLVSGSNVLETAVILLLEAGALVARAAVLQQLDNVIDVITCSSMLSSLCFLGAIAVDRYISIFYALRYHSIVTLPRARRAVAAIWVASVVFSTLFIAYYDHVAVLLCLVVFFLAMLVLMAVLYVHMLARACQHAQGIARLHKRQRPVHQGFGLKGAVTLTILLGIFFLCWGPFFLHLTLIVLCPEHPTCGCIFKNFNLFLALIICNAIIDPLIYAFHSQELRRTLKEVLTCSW
Test: Melanocortin receptor binding assay, competition with 125I-HP 467, HEK 293 cells expressing hMCR-1
Settings: inhibition of binding of 125I-HP 467, HEK 293 cells expressing MCR-1; read-out: MC-1 IC50
pIC50: −log10 of the molar value.
If the reported pIC50 equals or exceeds 7, assign yes (1). If not, assign no (0).

Reference set (3 entries):
[in] Identify whether the reported pIC50 of the following compound is 7 or greater: CCCCNc1ccc(C2C(CNC3CCCCC3)c3ccccc3CN2CCCC(CN)NCCc2ccc3ccccc3c2)cc1 (stereo not shown)
[out] no (0)

[in] Dear colleague, could you confirm whether CCCCNc1ccc(C2C(CNC3CCCCC3)c3ccccc3CN2CCCC(CN)NCCc2ccccc2)cc1 (stereo not shown) has pIC50 at or above 7?
[out] no (0)

[in] Hello, I need to know if CCCOc1ccc(C2C(CN)c3ccccc3CN2CCCCC(CN)NCC)cc1 (stereo not shown) has measured pIC50 not below 7. Thanks!
[out] no (0)

Continuing:
[in] Record COc1ccc(CCNCC2c3ccccc3CN(CCCCC(CN)NCc3ccc(-c4ccccc4)cc3)C2c2cc(C(F)(F)F)cc(C(F)(F)F)c2)cc1 (stereo not shown) ; criterion: pIC50 no lower than 7. Met?
[out] no (0)

[in] // inclusive: pIC50 at least 7? input: CCCCOc1ccc(C2C(CNCCc3ccccc3)c3ccccc3CN2CCCC(CN)NCCc2ccccc2)cc1 (stereo not shown)
[out] no (0)

====

Field: pIC50. Provide a value for each of the molecules that follow.
Molecular target: MCR-4 (Homo sapiens)
Construct: expressed in transfected cells; host or cells: HEK 293
Sequence (P32245 whole entry): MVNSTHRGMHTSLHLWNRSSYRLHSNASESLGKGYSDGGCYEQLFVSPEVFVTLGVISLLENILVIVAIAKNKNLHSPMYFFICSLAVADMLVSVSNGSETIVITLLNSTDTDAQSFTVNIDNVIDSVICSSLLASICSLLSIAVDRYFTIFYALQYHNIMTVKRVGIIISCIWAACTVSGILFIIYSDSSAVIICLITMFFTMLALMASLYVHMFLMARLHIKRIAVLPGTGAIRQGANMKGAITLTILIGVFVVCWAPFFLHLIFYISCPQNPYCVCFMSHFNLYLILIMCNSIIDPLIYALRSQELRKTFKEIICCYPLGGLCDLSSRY
Assay: Melanocortin receptor binding assay, competition with 125I-HP 467, HEK 293 cells expressing hMCR-4
Conditions: inhibition of binding of 125I-HP 467, HEK 293 cells expressing MCR-4; TRG 2414 library; read-out: MC-4 IC50
Give bare numbers, as −log10 of the molar value.

Lab note: each molecule below needs its pIC50 filled in.
1. COc1ccc(CCNCC2c3ccccc3CN(CCCCC(CN)NCc3ccccc3)C2c2ccc(Cl)cc2Cl)cc1 (stereo not shown)
2. NCC(CCCCN1Cc2ccccc2C(CNC2CCCCC2)C1c1ccc(Cl)cc1Cl)NCCc1ccccc1 (stereo not shown)
3. NCC(N)CCCCN1Cc2ccccc2C(CNC2CCCCC2)C1c1cc(C(F)(F)F)cc(C(F)(F)F)c1 (stereo not shown)

[out]
1. 5.59
2. 5.40
3. 6.20

Please state pIC50 for every molecule in the list that follows.
1. COc1cccc(CNCC2c3ccccc3CN(CCCCC(CN)NCCc3ccccc3)C2c2ccc(Oc3ccccc3)cc2)c1 (stereo not shown)
2. NCC(CCCCN1Cc2ccccc2C(CNC2CCCCCC2)C1c1cc(C(F)(F)F)cc(C(F)(F)F)c1)NCc1ccccc1 (stereo not shown)
3. COc1ccc(CNCC2c3ccccc3CN(CCCCC(N)CN)C2c2cc(C(F)(F)F)cc(C(F)(F)F)c2)cc1 (stereo not shown)
4. NCC(CCCCN1Cc2ccccc2C(CNC2CCCCC2)C1c1ccc(Oc2ccccc2)cc1)NCc1ccccc1 (stereo not shown)

[out]
1: 4.78; 2: 5.49; 3: 5.78; 4: 5.01

For each of the molecules below, state pIC50.
1. NCC(CCCCN1Cc2ccccc2C(CNC2CCCCC2)C1c1ccc(Oc2ccccc2)cc1)NCCc1ccccc1 (mixture of isomers)
2. COc1ccc(CCNCC2c3ccccc3CN(CCCCC(CN)NCC(C)c3ccc(CC(C)C)cc3)C2c2ccc(Cl)cc2Cl)cc1 (stereo not shown)
3. COc1cccc(CNCC2c3ccccc3CN(CCCCC(CN)NCc3ccccc3)C2c2ccc(Cl)cc2Cl)c1 (stereo not shown)
4. CC(C)Cc1ccc(C(C)CNC(CN)CCCCN2Cc3ccccc3C(CNCCc3cccc(Cl)c3)C2c2cccc(Oc3ccccc3)c2)cc1 (stereo not shown)

[out]
5.17
5.13
5.14
4.30

Below is a list of molecules. For each, state its recorded pIC50.
1. CC(C)Cc1ccc(C(C)CNC(CN)CCCCN2Cc3ccccc3C(CNC3CCCCC3)C2c2cc(C(F)(F)F)cc(C(F)(F)F)c2)cc1 (stereo not shown)
2. COc1ccc(CCNCC2c3ccccc3CN(CCCCC(CN)NCC(C)c3ccc(CC(C)C)cc3)C2c2cc(C(F)(F)F)cc(C(F)(F)F)c2)cc1 (stereo not shown)
3. NCC(N)CCCCN1Cc2ccccc2C(CNC2CCCCC2)C1c1ccc(Cl)cc1Cl (mixture of isomers)
4. CC(C)Cc1ccc(C(C)CNC(CN)CCCCN2Cc3ccccc3C(CNCc3ccccc3)C2c2ccc(Cl)cc2Cl)cc1 (stereo not shown)
5. CC(C)Cc1ccc(C(C)CNC(CN)CCCCN2Cc3ccccc3C(CNCCc3cccc(Cl)c3)C2c2ccc(Cl)cc2Cl)cc1 (stereo not shown)

[out]
4.57
4.75
5.89
4.49
4.48

Please give pIC50, item by item, for the list that follows.
1. NC[C@H](CCCCN1Cc2ccccc2C(CNCCc2cccc(Cl)c2)C1c1ccc(Cl)cc1Cl)NCc1ccccc1 (stereo partly shown)
2. CCCOc1ccc(C2C(CNCc3ccccc3OCC)c3ccccc3CN2CCCCC(CN)NCCc2ccccc2)cc1 (stereo not shown)
3. NCC(CCCCN1Cc2ccccc2C(CNCCc2cccc(Cl)c2)C1c1cc(C(F)(F)F)cc(C(F)(F)F)c1)NCc1ccccc1 (stereo not shown)
4. CCOc1ccccc1CNCC1c2ccccc2CN(CCCCC(N)CN)C1c1ccc(Oc2ccccc2)cc1 (stereo not shown)
5. NCC(CCCCN1Cc2ccccc2C(CNC2CCCCCC2)C1c1cccc(Oc2ccccc2)c1)NCCc1ccccc1 (stereo not shown)

[out]
1: 5.16; 2: 5.07; 3: 5.51; 4: 5.09; 5: 5.32

Dear reader, for each entry below, please note its pIC50.
1. NCC(CCCCN1Cc2ccccc2C(CNCc2ccccc2)C1c1cccc(Oc2ccccc2)c1)NCc1ccccc1 (stereo not shown)
2. CCOc1ccccc1CNCC1c2ccccc2CN(CCCCC(N)CN)C1c1cccc(Oc2ccccc2)c1 (mixture of isomers)
3. NCC(N)CCCCN1Cc2ccccc2C(CNC2CCCCCC2)C1c1ccc(Oc2ccccc2)cc1 (stereo not shown)
4. CCCOc1ccc(C2C(CNCCc3ccccc3OC)c3ccccc3CN2CCCCC(CN)NCCc2ccccc2)cc1 (stereo not shown)
5. CCOc1ccccc1CNCC1c2ccccc2CN(CCCCC(N)CN)C1c1ccc(Cl)cc1Cl (stereo not shown)
6. COc1cccc(CNCC2c3ccccc3CN(CCCCC(CN)NCCc3ccccc3)C2c2ccc(Cl)cc2Cl)c1 (stereo not shown)

[out]
[4.88, 5.66, 5.39, 5.13, 6.32, 5.09]

[in] pIC50 lookup needed for NCC(N)CCCCN1Cc2ccccc2C(CNCc2ccccc2C(F)(F)F)C1c1cc(C(F)(F)F)cc(C(F)(F)F)c1 (stereo not shown) , thanks.
[out] 4.81
